B1: SOAT2 (parent)
chain: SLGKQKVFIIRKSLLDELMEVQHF

variants of: B1; assay: protein stability index of a GFP-peptide fusion (GPS, HEK-293T) (PSI 1-6); higher = more stable; settings: c terminus: a fixed tail appended;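 further: lentivirally expressed fusions sorted by FACS into six bins by GFP to DsRed ratio, PSI derived from sequencing read proportions per bin multiplied by bin number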
Entry flag: criterion met if protein stability index reaches 2; criterion not met if it does not.

Is protein stability index at least 2? Consider L15A
criterion not met

Is protein stability index at least 2? Consider K12S
criterion not met

Is protein stability index at least 2? Consider F24K
criterion met

Is protein stability index at least 2? Consider V7C
criterion met

Is protein stability index at least 2? Consider E20M
criterion met

Is protein stability index at least 2? Consider I9K
criterion not met

Is protein stability index at least 2? Consider V21P
criterion met

Is protein stability index at least 2? Consider R11V
criterion met

Is protein stability index at least 2? Consider L14C
criterion not met

Is protein stability index at least 2? Consider Q5W
criterion met

Is protein stability index at least 2? Consider D16L
criterion met

Is protein stability index at least 2? Consider K6N
criterion not met

Is protein stability index at least 2? Consider K6S
criterion met

Is protein stability index at least 2? Consider F24C
criterion met

Is protein stability index at least 2? Consider D16Q
criterion met

Is protein stability index at least 2? Consider F24P
criterion met

Is protein stability index at least 2? Consider F8D
criterion met

Is protein stability index at least 2? Consider L18G
criterion met

Is protein stability index at least 2? Consider L15G
criterion met

Is protein stability index at least 2? Consider G3K
criterion not met

Is protein stability index at least 2? Consider Q22H
criterion not met

Is protein stability index at least 2? Consider V21R
criterion met

Is protein stability index at least 2? Consider M19Y
criterion not met

Is protein stability index at least 2? Consider Q22L
criterion met

Is protein stability index at least 2? Consider H23M
criterion not met

Is protein stability index at least 2? Consider K6L
criterion met

Is protein stability index at least 2? Consider V7Y
criterion met

Is protein stability index at least 2? Consider R11T
criterion met

Is protein stability index at least 2? Consider D16W
criterion met

Is protein stability index at least 2? Consider K4W
criterion met

Is protein stability index at least 2? Consider I10C
criterion met

Is protein stability index at least 2? Consider E20V
criterion not met

Is protein stability index at least 2? Consider L14N
criterion met

Is protein stability index at least 2? Consider Q5G
criterion met

Is protein stability index at least 2? Consider M19F
criterion met

Is protein stability index at least 2? Consider Q5V
criterion met

Is protein stability index at least 2? Consider S13M
criterion met

Is protein stability index at least 2? Consider F24D
criterion met

Is protein stability index at least 2? Consider E20R
criterion met

Is protein stability index at least 2? Consider D16T
criterion met

Is protein stability index at least 2? Consider V21H
criterion met

Is protein stability index at least 2? Consider K12T
criterion met

Is protein stability index at least 2? Consider S13D
criterion met

Is protein stability index at least 2? Consider E17R
criterion met

Is protein stability index at least 2? Consider I10A
criterion not met

Is protein stability index at least 2? Consider L2F
criterion met

Is protein stability index at least 2? Consider I10N
criterion not met

Is protein stability index at least 2? Consider S13I
criterion met

Is protein stability index at least 2? Consider L14V
criterion met
